Listing: inhibition at 1 µM of selected molecules
- measuredOn: human dopamine transporter (Homo sapiens, UniProt Q01959)
- Construct: expressed in transfected cells
- Sequence (Q01959 whole entry): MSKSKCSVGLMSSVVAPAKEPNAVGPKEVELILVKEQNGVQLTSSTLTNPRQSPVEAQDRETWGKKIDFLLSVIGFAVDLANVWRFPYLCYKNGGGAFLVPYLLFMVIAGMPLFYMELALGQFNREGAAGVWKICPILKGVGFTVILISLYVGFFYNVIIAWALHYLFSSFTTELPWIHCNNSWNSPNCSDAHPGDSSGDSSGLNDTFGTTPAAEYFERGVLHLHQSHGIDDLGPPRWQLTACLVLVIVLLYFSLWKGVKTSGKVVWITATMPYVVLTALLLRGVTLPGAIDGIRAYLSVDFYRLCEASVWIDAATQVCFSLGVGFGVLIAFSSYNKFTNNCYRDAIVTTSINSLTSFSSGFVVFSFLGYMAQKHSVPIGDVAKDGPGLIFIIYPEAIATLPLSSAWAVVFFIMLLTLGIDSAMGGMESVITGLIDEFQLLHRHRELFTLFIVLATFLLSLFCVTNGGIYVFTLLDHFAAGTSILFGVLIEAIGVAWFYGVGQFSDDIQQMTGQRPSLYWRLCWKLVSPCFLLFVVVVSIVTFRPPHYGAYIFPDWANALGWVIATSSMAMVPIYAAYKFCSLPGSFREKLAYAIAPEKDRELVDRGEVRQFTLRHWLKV
- assayText: Inhibitory action on human dopamine transporter ([3H]-dopamine uptake in CHO cells)
- Type: cell-based
- recordedConditions: CHO, compound 1 μM; relative to inhibitory activity of 100 μM Nomifensine as 100%; read-out: inhibitory rate (%)
Counter-ions that a name gives are not always drawn.
measurementKind: inhibition at 1 µM (%)

| molecule | unitsOfMeasure | recordedMeasurement |
| --- | --- | --- |
| O=C1NCCCN1C[C@H]1OCCNC[C@H]1c1ccc(Cl)c(Cl)c1 [Example 545, monohydrochloride] | % | 81 |
| O=c1[nH]c(-c2ccccc2O[C@@H]2CNCCO[C@H]2c2ccc(Cl)c(F)c2)no1 | % | 53 |
| CS(=O)(=O)CC(=O)NC[C@@H]1CNCCO[C@H]1c1ccc(Cl)c(Cl)c1 [Example 114, monohydrochloride] | % | 59 |
| CS(=O)(=O)NC[C@H]1OCCNC[C@H]1c1ccc(Cl)c(Cl)c1 [Example 467, monohydrochloride] | % | 60 |
| O=C(O)c1cccn(C[C@@H]2CNCCO[C@H]2c2ccc(Cl)c(F)c2)c1=O [Example 44, monohydrochloride] | % | 8 |
| CS(=O)(=O)NC[C@@]1(c2ccc(Cl)c(Cl)c2)CCNCCO1 [Example 432, monohydrochloride] | % | 10 |
| O=C(CO)NC[C@@H]1OCCNC[C@H]1c1ccc(Cl)c(Cl)c1 [Example 507, monohydrochloride] | % | 25 |

----------
- measuredOn: human norepinephrine transporter (Homo sapiens, UniProt P23975)
- Construct: expressed in transfected cells
- Sequence (P23975 whole entry): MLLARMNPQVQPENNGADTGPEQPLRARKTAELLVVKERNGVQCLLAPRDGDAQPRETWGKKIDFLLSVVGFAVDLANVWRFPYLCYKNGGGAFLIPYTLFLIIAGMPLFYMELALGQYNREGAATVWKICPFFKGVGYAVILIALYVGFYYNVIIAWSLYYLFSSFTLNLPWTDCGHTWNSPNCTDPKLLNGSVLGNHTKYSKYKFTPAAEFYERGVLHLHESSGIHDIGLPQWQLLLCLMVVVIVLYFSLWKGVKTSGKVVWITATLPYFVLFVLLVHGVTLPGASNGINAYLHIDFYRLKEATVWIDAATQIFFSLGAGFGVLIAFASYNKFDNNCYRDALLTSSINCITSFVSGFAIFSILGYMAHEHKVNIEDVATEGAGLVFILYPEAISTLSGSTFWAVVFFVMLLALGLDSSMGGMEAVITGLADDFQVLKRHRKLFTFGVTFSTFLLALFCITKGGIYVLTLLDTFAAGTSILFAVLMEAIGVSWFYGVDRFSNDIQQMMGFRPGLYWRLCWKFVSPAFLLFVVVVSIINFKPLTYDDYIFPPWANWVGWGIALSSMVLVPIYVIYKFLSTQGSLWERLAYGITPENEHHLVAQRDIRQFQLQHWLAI
- assayText: Inhibitory action on human norepinephrine transporter ([3H]-norepinephrine uptake in CHO cells)
- Format: cell-based
- recordedConditions: CHO, compound 1 μM; relative to inhibitory activity of 10 μM DMI as 100%; read-out: inhibitory rate (%)
Counter-ions that a name gives are not always drawn.
Listing: inhibition at 1 µM of selected molecules
measurementKind: inhibition at 1 µM (%)

| molecule | measurementKind | recordedMeasurement |
| --- | --- | --- |
| CS(=O)(=O)NCC1(c2ccc(Cl)c(Cl)c2)CNCCCO1 (racemic) [Example 24, monohydrochloride] | inhibition at 1 µM | 94 |
| O=c1[nH]nc(-c2cccn(C[C@@H]3CNCCO[C@H]3c3ccc(Cl)c(F)c3)c2=O)o1 [Example 550, monohydrochloride] | inhibition at 1 µM | 109 |
| COCC(=O)NC[C@@H]1CNCCO[C@H]1c1ccc(Cl)c(Cl)c1 [Example 33, monohydrochloride] | inhibition at 1 µM | 100 |
| OCC(O)COC[C@@]1(c2ccc(Cl)c(Cl)c2)CCNCCO1 (some centres unmarked) [Example 417, monohydrochloride] | inhibition at 1 µM | 102 |
| CC(C)OCC(=O)NC[C@@H]1CNCCO[C@H]1c1ccc(Cl)c(F)c1 [Example 41, monohydrochloride] | inhibition at 1 µM | 101 |
| Cc1cc(C2OCCNCC2CO)ccc1Cl (centres unmarked) | inhibition at 1 µM | 100 |
| COC[C@@H]1OCCNC[C@@H]1c1ccc(Cl)c(Cl)c1 (racemic) [Example 449, monohydrochloride] | inhibition at 1 µM | 100 |
| O=c1[nH]nc(-c2cccn(C[C@@H]3CNCCO[C@H]3c3ccc(Cl)c(F)c3)c2=O)[nH]1 [Example 379, monohydrochloride] | inhibition at 1 µM | 102 |
| OC[C@@H]1OCCNC[C@H]1c1ccc(Cl)c(Cl)c1 [Example 488, monohydrochloride] | inhibition at 1 µM | 102 |
| O=c1[nH]c(-c2cccn(C[C@@H]3CNCCO[C@H]3c3ccc(Cl)c(Cl)c3)c2=O)no1 [Example 31, monohydrochloride] | inhibition at 1 µM | 108 |
| O=c1nc(-c2ccccc2S(=O)(=O)C[C@@H]2CNCCO[C@H]2c2ccc(Cl)c(Cl)c2)[nH]o1 [Example 167, monohydrochloride] | inhibition at 1 µM | 103 |
| CS(=O)(=O)CC(=O)NC[C@H]1CNCCO[C@@H]1c1ccc(Cl)c(Cl)c1 [Example 115, monohydrochloride] | inhibition at 1 µM | 98 |
| O=c1[nH]c(-c2cccnc2O[C@H]2CNCCOC2c2ccc(Cl)c(Cl)c2)no1 (mixture of isomers) [Example 236, monohydrochloride] | inhibition at 1 µM | 105 |
| O=C(O)c1ccnn(C[C@@H]2CNCCO[C@H]2c2ccc(Cl)c(F)c2)c1=O | inhibition at 1 µM | 104 |
| CC(=O)[C@@H]1CNCCO[C@H]1c1ccc(Cl)c(Cl)c1 [Example 216, monohydrochloride] | inhibition at 1 µM | 94 |
| OCCOC[C@@]1(c2ccc(Cl)c(Cl)c2)CCNCCO1 [Example 416, monohydrochloride] | inhibition at 1 µM | 100 |
| O=C(NC[C@@H]1CNCCO[C@H]1c1ccc(Cl)c(F)c1)c1ccc[nH]c1=O [Example 367, monohydrochloride] | inhibition at 1 µM | 103 |
| O=C(Cn1cncn1)NC[C@@H]1OCCNC[C@@H]1c1ccc(Cl)c(Cl)c1 (racemic) [Example 457, monohydrochloride] | inhibition at 1 µM | 101 |
| OC[C@H]1OCCNC[C@H]1c1ccc(Cl)c(Cl)c1 (racemic) [Example 25, monohydrochloride] | inhibition at 1 µM | 99 |
| CS(=O)(=O)CC(=O)NC[C@@H]1CNCCO[C@H]1c1ccc(Cl)c(Cl)c1 [Example 114, monohydrochloride] | inhibition at 1 µM | 99 |
| OCCC[C@@H]1CNCCO[C@H]1c1ccc(Cl)c(Cl)c1 [Example 212, monohydrochloride] | inhibition at 1 µM | 103 |
| CS(=O)(=O)N[C@@H]1CNCCO[C@@H]1c1ccc(Cl)c(Cl)c1 (racemic) [Example 63, monohydrochloride] | inhibition at 1 µM | 100 |
| OC[C@H]1CNCCO[C@@H]1c1ccc(F)c(Cl)c1 | inhibition at 1 µM | 94 |
| [2H]C([2H])([2H])OCC(=O)NC[C@@H]1CNCCO[C@H]1c1ccc(Cl)c(F)c1 [Example 39, monohydrochloride] | inhibition at 1 µM | 102 |
| COC1(c2ccc(Cl)c(Cl)c2)CNCCOC1 (racemic) [Example 17, monohydrochloride] | inhibition at 1 µM | 75 |
| CS(=O)(=O)C[C@@H]1CNCCOC1c1ccc(F)c(Cl)c1 (mixture of isomers) [Example 281, monohydrochloride] | inhibition at 1 µM | 95 |
| CS(=O)(=O)NCCC[C@@H]1OCCNC[C@H]1c1ccc(Cl)c(Cl)c1 (racemic) [Example 520, monohydrochloride] | inhibition at 1 µM | 105 |
| O=C1CCCCN1C[C@@H]1CNCCO[C@H]1c1ccc(Cl)c(F)c1 [Example 376, monohydrochloride] | inhibition at 1 µM | 102 |
| O=C(NC[C@@H]1CNCCO[C@H]1c1ccc(Cl)c(Cl)c1)c1ccccc1 [Example 126, monohydrochloride] | inhibition at 1 µM | 103 |

Provenance of the data: patent US20130267494A1
